pIC50: −log10 of the molar value.
Each entry below carries its measured pIC50, system: Aromatase (Homo sapiens).
Sequence (P11511 whole entry): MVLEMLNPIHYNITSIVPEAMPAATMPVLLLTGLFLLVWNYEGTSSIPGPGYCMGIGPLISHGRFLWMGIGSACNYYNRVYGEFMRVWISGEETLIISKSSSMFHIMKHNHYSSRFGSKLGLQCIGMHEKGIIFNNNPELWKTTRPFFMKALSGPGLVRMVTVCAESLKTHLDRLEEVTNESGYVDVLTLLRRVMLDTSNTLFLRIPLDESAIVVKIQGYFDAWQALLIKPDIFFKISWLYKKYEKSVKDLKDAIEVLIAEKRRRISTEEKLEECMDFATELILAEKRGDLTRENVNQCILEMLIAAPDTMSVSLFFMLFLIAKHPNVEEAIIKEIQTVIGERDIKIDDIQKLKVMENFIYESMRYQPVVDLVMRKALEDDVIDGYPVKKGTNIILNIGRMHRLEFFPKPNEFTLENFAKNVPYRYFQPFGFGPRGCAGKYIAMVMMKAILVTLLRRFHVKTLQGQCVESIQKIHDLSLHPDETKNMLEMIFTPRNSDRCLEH
measure: pIC50

compound: CC(=O)O[C@@H]1C[C@@H]2[C@H](CC[C@]3(C)C(=O)CC[C@@H]23)[C@@]2(C)CCCC=C12
measured: 6.92

compound: CCCCC[C@@H]1C[C@@H]2[C@H](CC[C@]3(C)C(=O)CC[C@@H]23)[C@@]2(C)CCC(=O)C=C12
measured: 6.64

compound: C[C@]12CC[C@H]3[C@@H](CC[C@]4(F)[C@@H](O)C(=O)CC[C@]34C)[C@@H]1CCC2=O
measured: 5.54

compound: C[C@]12CCC(=O)C=C1[C@@H]1[C@H]([C@@H]3[C@@H]2CC[C@]2(C)C(=O)CC[C@@H]32)C1(F)F
measured: 5.94

compound: C[C@]12CC[C@@H]3c4cc([N+](=O)[O-])c(O)cc4CC[C@H]3[C@@H]1CCC2=O
measured: 4.82

compound: C[C@]12C=CC(=O)C=C1[C@H](Cc1ccccc1)C[C@@H]1[C@@H]2CC[C@]2(C)C(=O)CC[C@@H]12
measured: 6.23

compound: C[C@]12CC[C@H]3[C@@H](CCC4=CC(=O)CC[C@@]43C(F)F)[C@@H]1CCC2=O
measured: 5.40

compound: C[C@]12CCCCC1=CC[C@@H]1[C@@H]2CC[C@]2(C)C(O)CC[C@@H]12 (stereo not given in full)
measured: 4.52

compound: C[C@]12CC[C@@H]3c4ccc(O)c(NC(=O)c5cccnc5)c4CC[C@H]3[C@@H]1CCC2=O
measured: 4.02

compound: C[C@]12CCC(=O)C=C1[C@@H]1N[C@@H]1[C@@H]1[C@@H]2CC[C@]2(C)C(=O)CC[C@@H]12
measured: 4.31

compound: CCCC[C@H]1C[C@@H]2[C@H](CC[C@]3(C)[C@@H](O)CC[C@@H]23)c2ccc(O)cc21
measured: 4.55

compound: C[C@]12C=CC(=O)C(Sc3ccccc3)=C1C=C[C@@H]1[C@@H]2CC[C@]2(C)C(=O)CC[C@@H]12
measured: 7.19

compound: C[C@]12CCC(=O)C=C1CC[C@@H]1[C@@H]2CC[C@]2(C)C(=O)CC[C@@H]12
measured: 6.00

compound: C[C@]12CC[C@@H]3c4cc(Cl)c(O)cc4CC[C@H]3[C@@H]1CCC2=O
measured: 5.64

compound: C[C@]12C[C@@H](CCc3ccccc3)C(=O)C=C1CC[C@@H]1[C@@H]2CC[C@]2(C)C(=O)CC[C@@H]12
measured: 3.90

* * *

IC50 by entry:
target desc: UniProt:P11511

chem smiles: CCO[C@@H]1C[C@@]2(C)C(=CC1=O)CC[C@@H]1[C@@H]2CC[C@]2(C)C(=O)CC[C@@H]12
IC50 (µM): 11.8
--
chem smiles: CCCCCC(=O)O[C@@H]1C[C@@H]2[C@H](CC[C@]3(C)C(=O)CC[C@@H]23)[C@@]2(C)C=CC(=O)C=C12
IC50 (µM): 1.8
--
chem smiles: C/C=C1\CC[C@@]2(C)[C@@H](CC[C@@H]3[C@@H]2CC[C@]2(C)C4=NN(C)[C@H](c5ccccc5)[C@H]4C[C@@H]32)C1
IC50 (µM): 3.51
--
chem smiles: CCCC(=O)O[C@@H]1C[C@@H]2[C@H](CC[C@]3(C)C(=O)CC[C@@H]23)[C@@]2(C)CCC(=O)C=C12
IC50 (µM): 2.7
